assay: Drug level in C57BL/6 mouse plasma at 30 mg/kg, ip measured at 24 hrs; format: ADME, organism-based
Measured parameter: concentration at 24 h (nM)
Only the number, expressed in nM, is required.

query: Identify the reported concentration at 24 h for the following entry. COc1cc(-c2ccnc3c2c(C)nn3-c2ccc(C(F)(F)F)cc2)ccc1O
result: 20

----------
Let's look at some compounds and their measured remaining at 0 min.
assay: Stability of the compound in mouse liver microsomes assessed as parent compound remaining measured immediately; format: ADME, Microsome; details: read-out: Stability
Please make sure the unit comes right after the number.

| Smiles | remaining at 0 min |
| --- | --- |
| COc1cc(-c2c(C#N)c(N)nc3c2c(C)nn3-c2ccc(F)cc2)ccc1O | 100% |
| Cc1nn(-c2ccc(Cl)cc2)c2nc(N)c(C#N)c(-c3ccc(O)c(O)c3)c12 | 100% |
| Cc1ccc(-n2nc(C)c3c(-c4ccc(O)c(O)c4)c(C#N)c(N)nc32)cc1C | 100% |
| COc1cc(-c2ccnc3c2c(C)nn3-c2cccc(C(F)(F)F)c2)ccc1O | 100% |

query: Identify the reported remaining at 0 min for the following entry. COc1cc(-c2ccnc3c2c(C)nn3-c2ccc(C(F)(F)F)cc2)ccc1O
result: 100%

----------
Let's look at some molecules and their measured CC50 at 5 day.
assay: Cytotoxicity against MDCK cells assessed as reduction in cell viability measured on day 5 by Celltiter-Glo luminescence assay; format: cell-based, Canis lupus familiaris; details: dog, MDCK cells

query: Identify the reported CC50 at 5 day for the following entry. COc1cc(-c2c(C#N)c(N)nc3c2c(C)nn3-c2ccc(F)cc2)cc(OC)c1OC
result: 0.87 to 6 µM

query: Identify the reported CC50 at 5 day for the following entry. COc1cc(-c2ccnc3c2c(C)nn3-c2cccc(C(F)(F)F)c2)ccc1O
result: 24.5 to 49 µM

query: Identify the reported CC50 at 5 day for the following entry. COc1cc(-c2ccnc3c2c(C)nn3-c2ccc(C(F)(F)F)cc2)ccc1O
result: 19.8 to 27.8 µM

query: Identify the reported CC50 at 5 day for the following entry. COc1cc(-c2c(C#N)c(N)nc3c2c(C)nn3-c2ccc(F)cc2)ccc1O
result: 24.7 to 48.3 µM

query: Identify the reported CC50 at 5 day for the following entry. Cc1nn(-c2ccc(Cl)cc2)c2nc(N)c(C#N)c(-c3ccc(O)c(O)c3)c12
result: 20.4 to 31.9 µM

query: Identify the reported CC50 at 5 day for the following entry. Cc1ccc(-n2nc(C)c3c(-c4ccc(O)c(O)c4)c(C#N)c(N)nc32)cc1C
result: 24.5 to 39.3 µM

----------
assay: Drug level in C57BL/6 mouse plasma at 30 mg/kg, ip measured at 2 hrs; format: ADME, organism-based
Measured parameter: concentration at 2 h (nM)
Only the number, expressed in nM, is required.

query: Identify the reported concentration at 2 h for the following entry. COc1cc(-c2ccnc3c2c(C)nn3-c2ccc(C(F)(F)F)cc2)ccc1O
result: 2530

----------
Let's look at some compounds and their measured Kinetic_solubility.
assay: Aqueous kinetic solubility of the compound; type: physicochemical; conditions: buffer
Only the number, expressed in µM, is required.

// below: answered compounds
| Smiles | Value units | Kinetic_solubility |
| --- | --- | --- |
| Cc1nn(-c2ccc(Cl)cc2)c2nc(N)c(C#N)c(-c3ccc(O)c(O)c3)c12 | µM | 1.9 |
| Cc1ccc(-n2nc(C)c3c(-c4ccc(O)c(O)c4)c(C#N)c(N)nc32)cc1C | µM | 11.6 |
| COc1cc(-c2c(C#N)c(N)nc3c2c(C)nn3-c2ccc(F)cc2)ccc1O | µM | 3 |

query: Identify the reported Kinetic_solubility for the following entry. COc1cc(-c2ccnc3c2c(C)nn3-c2cccc(C(F)(F)F)c2)ccc1O
result: 1.7

query: Identify the reported Kinetic_solubility for the following entry. COc1cc(-c2ccnc3c2c(C)nn3-c2ccc(C(F)(F)F)cc2)ccc1O
result: 3.1

----------
experiment: Stability of the compound in mouse liver microsomes assessed as parent compound remaining measured after 30 mins; format: ADME, Microsome; settings: read-out: Stability
Measured parameter: remaining at 0.5 h (%)
Only the number, expressed in %, is required.

// below: answered molecules
| Smiles | Measured parameter | Value units | Readout value |
| --- | --- | --- | --- |
| Cc1ccc(-n2nc(C)c3c(-c4ccc(O)c(O)c4)c(C#N)c(N)nc32)cc1C | remaining at 0.5 h | % | 64 |
| Cc1nn(-c2ccc(Cl)cc2)c2nc(N)c(C#N)c(-c3ccc(O)c(O)c3)c12 | remaining at 0.5 h | % | 90 |
| COc1cc(-c2c(C#N)c(N)nc3c2c(C)nn3-c2ccc(F)cc2)ccc1O | remaining at 0.5 h | % | 60 |
| COc1cc(-c2ccnc3c2c(C)nn3-c2ccc(C(F)(F)F)cc2)ccc1O | remaining at 0.5 h | % | 45 |

# input for lookup
query: Identify the reported remaining at 0.5 h for the following entry. COc1cc(-c2ccnc3c2c(C)nn3-c2cccc(C(F)(F)F)c2)ccc1O
result: 16

----------
experiment: AUClast in C57BL/6 mouse lung at 30 mg/kg, ip; type: ADME, organism-based; parameters: dose 30 mg/kg, route intraperitoneal, time 0 - last
Let's look at some molecules and their measured AUC(0-t).
Please make sure the unit comes right after the number.

| Smiles | Measured parameter | Readout value |
| --- | --- | --- |
| COc1cc(-c2ccnc3c2c(C)nn3-c2ccc(C(F)(F)F)cc2)ccc1O | AUC(0-t) | 53900 ng·h/mL |

# input for lookup
query: Identify the reported AUC(0-t) for the following entry. COc1cc(-c2ccnc3c2c(C)nn3-c2cccc(C(F)(F)F)c2)ccc1O
result: 49100 ng·h/mL

----------
assay: AUC (infinity) in C57BL/6 mouse plasma at 30 mg/kg, ip; assay type: ADME, organism-based; parameters: dose 30 mg/kg, route intraperitoneal, time infinity
Measured parameter: AUC(0-inf) (ng·h/mL)
Only the number, expressed in ng·h/mL, is required.

query: Identify the reported AUC(0-inf) for the following entry. COc1cc(-c2ccnc3c2c(C)nn3-c2cccc(C(F)(F)F)c2)ccc1O
result: 5970

----------
experiment: Drug level in C57BL/6 mouse plasma at 30 mg/kg, ip measured at 48 hrs; assay type: ADME, organism-based
Measured parameter: concentration at 48 h (nM)
Only the number, expressed in nM, is required.

query: Identify the reported concentration at 48 h for the following entry. COc1cc(-c2ccnc3c2c(C)nn3-c2ccc(C(F)(F)F)cc2)ccc1O
result: 3

----------
Let's look at some molecules and their measured half-life.
assay: Terminal half life in C57BL/6 mouse liver at 30 mg/kg, ip; format: ADME, organism-based; conditions: read-out: beta t1/2 (converted)
Only the number, expressed in h, is required.

| Smiles | Readout value |
| --- | --- |
| COc1cc(-c2ccnc3c2c(C)nn3-c2cccc(C(F)(F)F)c2)ccc1O | 5.3 |

# input for lookup
query: Identify the reported half-life for the following entry. COc1cc(-c2ccnc3c2c(C)nn3-c2ccc(C(F)(F)F)cc2)ccc1O
result: 4.7

----------
assay: Terminal half life in C57BL/6 mouse plasma at 30 mg/kg, ip; format: ADME, organism-based; conditions: C57BL/6, mouse, plasma, read-out: beta t1/2 (converted)
Measured parameter: half-life (h)
Only the number, expressed in h, is required.

query: Identify the reported half-life for the following entry. COc1cc(-c2ccnc3c2c(C)nn3-c2cccc(C(F)(F)F)c2)ccc1O
result: 5.2

----------
test: Drug level in C57BL/6 mouse plasma at 30 mg/kg, ip measured at 1 hrs; type: ADME, organism-based
Measured parameter: concentration at 1 h (µM)
Only the number, expressed in µM, is required.

query: Identify the reported concentration at 1 h for the following entry. COc1cc(-c2ccnc3c2c(C)nn3-c2ccc(C(F)(F)F)cc2)ccc1O
result: 5.12

----------
experiment: Cmax in C57BL/6 mouse liver at 30 mg/kg, ip; assay type: ADME, organism-based; design: dose 30 mg/kg, route intraperitoneal
Measured parameter: Cmax

| Smiles | Readout value |
| --- | --- |
| COc1cc(-c2ccnc3c2c(C)nn3-c2cccc(C(F)(F)F)c2)ccc1O | 64 µg/mL |

# input for lookup
query: Identify the reported Cmax for the following entry. COc1cc(-c2ccnc3c2c(C)nn3-c2ccc(C(F)(F)F)cc2)ccc1O
result: 49.6 µg/mL

----------
assay: Drug level in C57BL/6 mouse plasma at 30 mg/kg, ip measured at 0.25 hrs; format: ADME, organism-based
Measured parameter: concentration at 0.25 h (µM)
Only the number, expressed in µM, is required.

query: Identify the reported concentration at 0.25 h for the following entry. COc1cc(-c2ccnc3c2c(C)nn3-c2ccc(C(F)(F)F)cc2)ccc1O
result: 6.1
